Cited source: ChEMBL document CHEMBL3885861

Species on record: Rattus norvegicus
assay overview: Open TG-GATES - Regimen: Single
Assay type: toxicity, organism-based, Sprague-Dawley
Parameters: regimen Single, gender Male, age 6 weeks
recorded conditions: in vivo, po, 0 mg/kg, 24 h, tissue Blood, route gavage, dose level Control
measurement type: PT
Give the number first and the unit second.

{"compound": "CN(CCOc1ccc(CC2SC(=O)NC2=O)cc1)c1ccccn1.O=C(O)/C=C\\C(=O)O (centres undefined) [ROSIGLITAZONE MALEATE]", "measurement type": "PT", "result": "11.7 s"}
{"compound": "CCCCNC(=O)NS(=O)(=O)c1ccc(C)cc1 [TOLBUTAMIDE]", "measurement type": "PT", "result": "12.9 s"}
{"compound": "CC(=O)[C@@]1(O)CC[C@H]2[C@@H]3C=C(Cl)C4=CC(=O)CC[C@]4(C)[C@H]3CC[C@@]21C", "measurement type": "PT", "result": "15.9 s"}

Entry Nc1ccc(Cc2ccc(N)cc2)cc1 , PT reported as 11.4 s

###

Species: Rattus norvegicus
assay overview: Open TG-GATES - Regimen: Single
Assay type: toxicity, organism-based, Sprague-Dawley
Design: regimen Single, gender Male, age 6 weeks
recorded conditions: in vivo, po, 0 mg/kg, 6 h, tissue Blood, route gavage, dose level Control
Recorded measurements of RBC, one per entry
Your answer should be a plain number; it is taken to be in x10_4/ul.

Reference set, count: 5
{"compound": "CN(C)CCCN1c2ccccc2Sc2ccc(Cl)cc21", "units symbol": "x10_4/ul", "RBC": 634}
{"compound": "NS(=O)(=O)c1cc(C(=O)O)c(NCc2ccco2)cc1Cl [FUROSEMIDE]", "units symbol": "x10_4/ul", "RBC": 617.2}
{"compound": "CCN(CC)C(=S)SSC(=S)N(CC)CC", "units symbol": "x10_4/ul", "RBC": 635.6}
{"compound": "CCO", "units symbol": "x10_4/ul", "RBC": 638.8}
{"compound": "CN(CCOc1ccc(CC2SC(=O)NC2=O)cc1)c1ccccn1.O=C(O)/C=C\\C(=O)O (stereo not drawn) [ROSIGLITAZONE MALEATE]", "units symbol": "x10_4/ul", "RBC": 609.4}

Entry Nc1ccc(Cc2ccc(N)cc2)cc1 , RBC reported as 606

Entry C=C[C@H]1C[N@@]2CC[C@H]1C[C@@H]2[C@@H](O)c1ccnc2ccc(OC)cc12 , RBC reported as 641

Entry CCCCNC(=O)NS(=O)(=O)c1ccc(C)cc1 [TOLBUTAMIDE] , RBC reported as 659.4

###

Organism: Rattus norvegicus
assay overview: Open TG-GATES - Regimen: Daily Repeat
Assay type: toxicity, organism-based, Sprague-Dawley
Design: regimen Daily Repeat, gender Male, age 6 weeks
recorded conditions: in vivo, po, 0 mg/kg, […], route gavage, dose level Control, time 14 day
Recorded measurements of TERMINAL_BW, one per entry
Your answer should be a plain number; it is taken to be in g.

Reference set, count: 5
{"compound": "CCN(CC)C(=S)SSC(=S)N(CC)CC", "units symbol": "g", "TERMINAL_BW": 313.3}
{"compound": "COc1ccc([C@@H]2Sc3ccccc3N(CCN(C)C)C(=O)[C@@H]2OC(C)=O)cc1", "units symbol": "g", "TERMINAL_BW": 321.8}
{"compound": "CCO", "units symbol": "g", "TERMINAL_BW": 302.6}
{"compound": "CC(=O)[C@@]1(O)CC[C@H]2[C@@H]3C=C(Cl)C4=CC(=O)CC[C@]4(C)[C@H]3CC[C@@]21C", "units symbol": "g", "TERMINAL_BW": 325.5}
{"compound": "CCCCNC(=O)NS(=O)(=O)c1ccc(C)cc1 [TOLBUTAMIDE]", "units symbol": "g", "TERMINAL_BW": 338.7}

Entry O=C(O)c1ccccc1Nc1ccccc1 , TERMINAL_BW reported as 334.6
